What relative viability was measured for each of the following?
- System: NCI-H2085
- Assay Summary: relative viability (nuclei count vs DMSO), 5 days (fraction); higher = more cells survive
- Condition Info: first compound 8 µM
Give bare numbers.

Compound	relative viability
O=c1[nH]c2ccccc2n1C1CCN(CCCC(c2ccc(F)cc2)c2ccc(F)cc2)CC1 [Pimozide] + COc1cccc2cc(-c3nc([C@H]4CC[C@H](C(=O)O)CC4)n4ncnc(N)c34)[nH]c12 [OSI-027] (partner 0.5 µM)	0.61

# input for lookup
Would you please give the reported relative viability of O=c1[nH]c2ccccc2n1C1CCN(CCCC(c2ccc(F)cc2)c2ccc(F)cc2)CC1 [Pimozide] + CC(=O)c1c(C)c2cnc(Nc3ccc(N4CCNCC4)cn3)nc2n(C2CCCC2)c1=O [Palbociclib] (partner 0.5 µM) with NCI-H2085?
0.422

Hello, the source for this data is the supplement of paper PMC10307832, in case you need it.
